# Study System: HLA-A*0201 on mild-acid treated JY cells (human)
# Procedure Details: competition vs FL-reference peptide, JY cells, 4°C 24 hr
# Test Parameters: remark: other sources report otherwise
pIC50: −log10 of the molar value.
Reported Metric: pIC50

* TLGIVCPI [HPV16 E7 86-93] | 6.15
